// provenance: the supplement of paper PMC10567573

B1: SCNN1D (parent)
chain: RRPSPVLRHLELLDEFARENIDSL

Variants of: B1
protocol_text: protein stability index of a GFP-peptide fusion (GPS, HEK-293T) (PSI 1-6); higher = more stable;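 note: lentivirally expressed fusions sorted by FACS into six bins by GFP to DsRed ratio, PSI derived from sequencing read proportions per bin multiplied by bin number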
condition_notes: c terminus: a fixed tail appended
Known protein stability index of a selection of variants

mutant_name: F16Y
protein stability index: 3.09
--
mutant_name: N20W
protein stability index: 2.85
--
mutant_name: E11S
protein stability index: 3.25
--
mutant_name: R1V
protein stability index: 2.36
--
mutant_name: E15L
protein stability index: 1.76
--
mutant_name: V6H
protein stability index: 3.79
--
mutant_name: S4D
protein stability index: 3.68
--
mutant_name: V6F
protein stability index: 2.28
--
mutant_name: D14W
protein stability index: 1.44
--
mutant_name: L24N
protein stability index: 3.29
--
mutant_name: R1Q
protein stability index: 2.69
--
mutant_name: A17T
protein stability index: 3.62
--
mutant_name: D14R
protein stability index: 2.27
--
mutant_name: S23D
protein stability index: 2.57
--
mutant_name: I21K
protein stability index: 3.36
--
mutant_name: L7Y
protein stability index: 3.24
--
mutant_name: L10I
protein stability index: 2.1
--
mutant_name: P3T
protein stability index: 2.83
--
mutant_name: D14C
protein stability index: 1.59
--
mutant_name: V6L
protein stability index: 1.91
--
mutant_name: V6E
protein stability index: 3.37
--
mutant_name: L10M
protein stability index: 2.34
--
mutant_name: S23A
protein stability index: 2.07
--
mutant_name: I21N
protein stability index: 2.81
--
mutant_name: P5A
protein stability index: 2.4
--
mutant_name: L12D
protein stability index: 4.64
--
mutant_name: L7F
protein stability index: 3.29
--
mutant_name: N20T
protein stability index: 1.93
--
mutant_name: R2P
protein stability index: 4.61
--
mutant_name: S4P
protein stability index: 3.17
--
mutant_name: P5N
protein stability index: 3.22
--
mutant_name: A17S
protein stability index: 4.37
--
mutant_name: L12C
protein stability index: 3.97
--
mutant_name: R1D
protein stability index: 2.86
--
mutant_name: I21T
protein stability index: 2.98
--
mutant_name: E19K
protein stability index: 2.74
--
mutant_name: E19F
protein stability index: 2.46
--
mutant_name: A17Q
protein stability index: 3.16
--
mutant_name: E11D
protein stability index: 3.55
--
mutant_name: E19I
protein stability index: 2.5
--
mutant_name: R8W
protein stability index: 2.7
--
mutant_name: S4A
protein stability index: 2.63
--
mutant_name: E19Y
protein stability index: 2.39
--
mutant_name: L12N
protein stability index: 3.9
--
mutant_name: I21C
protein stability index: 2.43
--
mutant_name: E15I
protein stability index: 2.72
--
mutant_name: P3V
protein stability index: 1.44
--
mutant_name: P5E
protein stability index: 3.77
--
mutant_name: L12G
protein stability index: 4.09
--
mutant_name: V6Q
protein stability index: 2.82
--
mutant_name: E19H
protein stability index: 2.5
--
mutant_name: E11M
protein stability index: 2.14
--
mutant_name: P3S
protein stability index: 2.72
--
mutant_name: E19A
protein stability index: 3.18
--
mutant_name: R2F
protein stability index: 2.22
--
mutant_name: R18P
protein stability index: 4.25
--
mutant_name: N20L
protein stability index: 2.17
--
mutant_name: F16T
protein stability index: 4.21
--
mutant_name: S4I
protein stability index: 2.67
--
mutant_name: P5H
protein stability index: 2.97
--
mutant_name: R2T
protein stability index: 3.55
--
mutant_name: D14Y
protein stability index: 2
--
mutant_name: L24F
protein stability index: 2.07
--
mutant_name: S23G
protein stability index: 3.33
--
mutant_name: R18E
protein stability index: 3.12
--
mutant_name: S23P
protein stability index: 2.99
--
mutant_name: R18V
protein stability index: 2.35
--
mutant_name: R18W
protein stability index: 1.73
--
mutant_name: R2E
protein stability index: 3.22
--
mutant_name: S4L
protein stability index: 2.66
--
mutant_name: A17Y
protein stability index: 2.9
--
mutant_name: N20Y
protein stability index: 2.07
--
mutant_name: H9D
protein stability index: 3.99
--
mutant_name: R18Y
protein stability index: 2.7
--
mutant_name: P3M
protein stability index: 2.26
--
mutant_name: A17L
protein stability index: 3.07
